Target: SHP2-C SH2;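 also: peptide library displayed on the E. coli surface as eCPX fusions, selected cells deep-sequenced, score is each peptide's frequency after selection divided by its frequency in the input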
Assay: SH2 binding enrichment of the phosphorylated peptide, bacterial display (enrichment ratio); higher = better substrate or ligand; peptides without Tyr show the background
MEASURED_PARAMETER: SH2 binding enrichment

Solved entries:
>>> measured_result("EEEYEYMNRRR [ERBB3_Y1199_D1194E]")
0.618
>>> measured_result("ARSHIYTFASC [MEFV_Y741]")
0.763
>>> measured_result("GLGVTYEQALA [MAP2_Y996]")
0.495
>>> measured_result("SENFTYIWWLN [PSG4_Y271_K267E_YF]")
0.563
>>> measured_result("VEDPEYAVTQP [STOML2_Y124_L129P]")
0.666
>>> measured_result("SVTCTYSPTLN [TP53_Y126_A129T]")
0.551
>>> measured_result("FQKNIYSEEPR [LMNA_Y211_L215P]")
0.462
>>> measured_result("TIWDSYTTNKV [GNB1_Y85_I80T]")
0.893
>>> measured_result("NTSKMYIPHTD [EXPH5_Y782_D777N]")
0.68
>>> measured_result("HNLDFYKKTTN [FGFR3_Y648_YF]")
0.602

1. KAIMTYVSSFY [ACTN4_Y260]
2. MCVKSYTIHFS [F5_Y2153_Y2149C_YF]
[ask] Please tell me which of the two, 1 or 2 , has the higher reported SH2 binding enrichment value. // caller expects the label of the chosen entry
[reply] 1

Hello, the source for this data is the supplement of paper PMC10065799, in case you need it.
